Target under test: T1, SNTB1, Q13884
T1 sequence (Q13884 107-205, limits assumed, looked up): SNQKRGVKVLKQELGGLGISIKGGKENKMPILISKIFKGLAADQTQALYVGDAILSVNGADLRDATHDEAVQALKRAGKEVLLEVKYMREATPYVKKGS
Experiment notes: holdup assay
Design: key: below the threshold = too weak to quantify, mostly under pKd 3.1 to 4
Run parameters: plain residues with an end cap or a label only (N-terminal biotin on a linker: ado-ado)
Given measured pKd, output class 1 if it is greater than or equal to 4 and class 0 if not.

Binder	Category label
RDPPAEWTRV [PTPN18, Q99952]	class 1
PSHPRLQTHV [KIRREL2, Q6UWL6]	class 0
DDASLPVSDV [PLEKHA1, Q9HB21]	class 1
GEDRSPPTAL [MKNK1, Q9BUB5]	class 0
ILRKSTTTTV [PRR16, Q569H4]	class 0
DGVNEKVSCV [HTR2A, P28223]	class 1
EPQYQPGENL [SRC, P12931]	class 0
NTANRRTTPV [CACNG2, Q9Y698]	class 1
AAVENKVTDL [PLXNB1, O43157]	class 1
EDLEDEWEVI [TECPR2, O15040]	class 0
